Endpoint: pKi. System: Sodium-dependent dopamine transporter (Rattus norvegicus, UniProt P23977). Items follow.
Sequence (P23977 whole entry): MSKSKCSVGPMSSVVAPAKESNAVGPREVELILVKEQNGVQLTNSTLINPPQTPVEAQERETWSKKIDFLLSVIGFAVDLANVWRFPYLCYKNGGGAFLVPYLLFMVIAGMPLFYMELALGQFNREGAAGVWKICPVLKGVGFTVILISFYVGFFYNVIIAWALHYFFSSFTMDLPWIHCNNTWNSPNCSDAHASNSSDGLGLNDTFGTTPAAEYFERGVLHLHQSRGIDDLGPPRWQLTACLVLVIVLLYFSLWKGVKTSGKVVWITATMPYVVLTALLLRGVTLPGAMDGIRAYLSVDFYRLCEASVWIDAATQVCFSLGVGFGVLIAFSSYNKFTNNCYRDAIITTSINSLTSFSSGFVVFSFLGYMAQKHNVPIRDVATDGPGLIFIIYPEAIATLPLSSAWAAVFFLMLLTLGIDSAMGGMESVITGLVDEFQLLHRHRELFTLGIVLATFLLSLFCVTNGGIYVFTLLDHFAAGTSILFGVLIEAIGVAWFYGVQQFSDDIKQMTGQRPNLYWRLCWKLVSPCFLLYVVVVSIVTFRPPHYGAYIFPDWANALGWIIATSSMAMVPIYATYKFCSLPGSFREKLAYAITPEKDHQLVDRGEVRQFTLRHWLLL
pKi: −log10 of the molar value.
Readout: pKi

Compound	Experimental system	Readout	Experimental result
CCN(CC)c1ccc2c(-c3ccc(S(=O)(=O)NCCCCCC(=O)NCCN4C5CCC4[C@@H](C(=O)OC)[C@@H](c4ccc(Cl)c(Cl)c4)C5)cc3S(=O)(=O)[O-])c3ccc(=[N+](CC)CC)cc-3oc2c1 (some centres undefined)	Sodium-dependent dopamine transporter (Rattus norvegicus, UniProt P23977)	pKi	7.77

P = CCN(CC)c1ccc2c(-c3ccc(S(=O)(=O)NCCCCCC(=O)NCc4cccc(C(CCNC)Oc5ccccc5OC)c4)cc3S(=O)(=O)[O-])c3ccc(=[N+](CC)CC)cc-3oc2c1 (centres undefined)
Q = CCN(CC)c1ccc2c(-c3ccc(S(=O)(=O)NCCCCCC(=O)NCc4ccc5c(c4)C(C)(C)OC5(CCCNC)c4ccccc4)cc3S(=O)(=O)[O-])c3ccc(=[N+](CC)CC)cc-3oc2c1 (centres undefined)
Parameter metric = pKi. Return the lower-valued option from P and Q . Select an item and report its label.
P
(P: 5.81, Q: 6.02)
